# test_name: qHTS assay to identify small molecule agonists of H2AX (AID 1224845)
# conditions: CHO-K1 phospho-H2AX Ser139 HTRF, 3 h; series mostly up to 154 µM
Inconclusive results are not listed. The source made the active and inactive calls. The call rests on the fitted dose curve; in most records, active means well fitted activation curve with a large enough effect in the signal ratio in the repeat runs (not every such curve was filed as active); inconclusive means weak or mixed curves; inactive means flat fitted curve, though single readings scatter; the % refers to the signal ratio.
Labels: yes (active), no (inactive)

- molecule: "COC(=O)c1c(C(F)F)nc(C(F)(F)F)c(C2=NCCS2)c1CC(C)C"
  label: "no"
- molecule: "CCC(Cl)[N+](=O)[O-] (stereo not drawn)"
  label: "no"
- molecule: "CC(=O)CCc1ccc2c(c1)OCO2"
  label: "no"
- molecule: "O=C(Nc1ccccc1)N(Cc1ccc(Cl)cc1)C1CCCC1"
  label: "no"
- molecule: "COc1cc(OC)nc(Oc2cccc(Oc3nc(OC)cc(OC)n3)c2C(=O)O)n1"
  label: "no"
- molecule: "COC(=O)COc1ccc(Cl)cc1Cl"
  label: "no"
- molecule: "COc1ccc(C(=O)N2CCCC2=O)cc1"
  label: "no"
- molecule: "OC(c1ccccc1)(c1ccccc1)C1CCNCC1"
  label: "no"
- molecule: "CNC(=O)N(C)c1nc2ccccc2s1"
  label: "no"
- molecule: "NC(=S)C(N)=S"
  label: "no"
- molecule: "CCCCC(=O)Cl"
  label: "no"
- molecule: "CC(C(=O)c1ccccc1)N(C)C (stereo not drawn)"
  label: "no"
- molecule: "O=[N+]([O-])c1ccc(CBr)cc1"
  label: "no"
- molecule: "Cc1cc(C)nc(Nc2ccccc2)n1"
  label: "no"
- molecule: "[As]#[In]"
  label: "no"
- molecule: "CCCCOC(=O)c1ccccc1N"
  label: "no"
- molecule: "C=CCC1=C(C)[C@@H](OC(=O)[C@@H]2[C@@H](C=C(C)C)C2(C)C)CC1=O"
  label: "yes"
- molecule: "CC(N)=S"
  label: "no"
- molecule: "C[C@]12CC[C@H]3[C@@H](CC=C4C[C@@H](O)CC[C@@]43C)[C@@H]1CC[C@@H]2O"
  label: "no"
- molecule: "[Cl][Sn]([Cl])([Cl])[Cl]"
  label: "no"
- molecule: "CCCCc1c(C)nc(NCC)[nH]c1=O"
  label: "no"
- molecule: "CNC(=O)Oc1ccc(N(C)C)c(C)c1"
  label: "no"
- molecule: "Fc1cc(Br)ccc1CBr"
  label: "no"
- molecule: "O=C1OC(c2ccc(O)c(S(=O)(=O)O)c2)(c2ccc(O)c(S(=O)(=O)O)c2)c2c(Br)c(Br)c(Br)c(Br)c21"
  label: "no"
- molecule: "CCOP(=S)(OCC)Oc1ncn(-c2ccccc2)n1"
  label: "no"
- molecule: "C#CCN1C(=O)COc2cc(F)c(N3C(=O)C4=C(CCCC4)C3=O)cc21"
  label: "no"
- molecule: "CCCCN(CCCCO)N=O"
  label: "no"
- molecule: "CCC#N"
  label: "no"
